- Study target: Histone deacetylase 4 (Homo sapiens) (UniProt P56524)
- Sequence (P56524 whole entry): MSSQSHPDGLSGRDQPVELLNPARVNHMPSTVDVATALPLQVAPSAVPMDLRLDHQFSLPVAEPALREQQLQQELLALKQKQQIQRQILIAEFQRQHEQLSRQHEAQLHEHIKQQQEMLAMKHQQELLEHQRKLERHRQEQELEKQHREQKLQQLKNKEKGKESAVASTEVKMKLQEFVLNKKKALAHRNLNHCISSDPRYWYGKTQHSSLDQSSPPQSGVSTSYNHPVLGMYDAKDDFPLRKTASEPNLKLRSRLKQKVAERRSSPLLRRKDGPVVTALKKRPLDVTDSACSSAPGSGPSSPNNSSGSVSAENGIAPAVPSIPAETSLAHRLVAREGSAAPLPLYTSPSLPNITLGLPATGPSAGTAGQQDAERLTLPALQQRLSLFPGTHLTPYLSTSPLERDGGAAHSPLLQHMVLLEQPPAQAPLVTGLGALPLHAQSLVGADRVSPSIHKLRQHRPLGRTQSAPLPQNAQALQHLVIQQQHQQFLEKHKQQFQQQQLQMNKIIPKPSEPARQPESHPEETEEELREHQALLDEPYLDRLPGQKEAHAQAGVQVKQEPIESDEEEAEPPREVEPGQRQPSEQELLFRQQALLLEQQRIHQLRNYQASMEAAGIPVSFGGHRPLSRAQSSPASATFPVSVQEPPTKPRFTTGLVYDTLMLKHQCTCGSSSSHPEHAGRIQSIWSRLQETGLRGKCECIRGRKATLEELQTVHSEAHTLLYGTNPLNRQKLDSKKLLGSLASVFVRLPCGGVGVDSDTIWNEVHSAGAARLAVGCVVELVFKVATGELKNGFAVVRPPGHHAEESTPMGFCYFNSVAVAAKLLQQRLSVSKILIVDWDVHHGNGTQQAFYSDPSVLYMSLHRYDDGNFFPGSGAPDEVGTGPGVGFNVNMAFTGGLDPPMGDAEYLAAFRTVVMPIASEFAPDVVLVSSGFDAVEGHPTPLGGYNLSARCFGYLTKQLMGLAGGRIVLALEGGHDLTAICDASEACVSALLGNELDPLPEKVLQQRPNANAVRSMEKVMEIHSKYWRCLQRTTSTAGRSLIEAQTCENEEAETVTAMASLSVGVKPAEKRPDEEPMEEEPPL
- Test method notes: Inhibition of HDAC4 in human U937 cells at 5 uM […]
- Type: cell-based
- Measurement parameters: U-937
Activity calls are given as the source filed them. The rule behind the calls is not given here.
Readout name: inhibition

CO/N=C(\Cc1c[nH]c2ccc(Br)cc12)C(=O)NCCSSCCNC(=O)/C(Cc1c[nH]c2ccc(Br)cc12)=N/OC Active
O=C(NCCSSCCNC(=O)/C(Cc1c[nH]c2ccccc12)=N/O)/C(Cc1c[nH]c2ccccc12)=N/O 20%
O=C(NCCSSCCNC(=O)/C(Cc1c[nH]c2ccc(Br)cc12)=N/O)/C(Cc1c[nH]c2ccc(Br)cc12)=N/O 40%
COc1ccc2[nH]cc(C/C(=N\O)C(=O)NCCSSCCNC(=O)/C(Cc3c[nH]c4ccc(OC)cc34)=N/O)c2c1 Active
